- tested.target: Collagenase-3 (MMP-13) (Homo sapiens)
- assay.summary: Collagenase-3 (MMP-13) inhibitory activity, fluorogenic peptide substrate assay
- Assay type: biochemical
- run.conditions: recombinant pro-collagenase-3 activated with 1 mM APMA; read-out: MMP13 IC50
pIC50: −log10 of the molar value.
observation.type: pIC50

{"structure.notation": "CC(=O)Nc1ccc2cc(S(=O)(=O)N(CCCc3ccccc3)[C@@H](C(=O)NO)C(C)C)ccc2c1", "test.result": 5.88}
{"structure.notation": "CSCC[C@H](C(=O)NO)N(CCC(C)C)S(=O)(=O)c1ccc2ccccc2c1", "test.result": 9.52}
{"structure.notation": "CC(C)CCN([C@@H](C(=O)NO)C(C)C)S(=O)(=O)c1ccc2ccccc2c1Cl", "test.result": 6.93}

A = CC(C)CCN(C1(C(=O)NO)CC1)S(=O)(=O)c1ccc2ccccc2c1
B = CCOc1ccc2ccc(S(=O)(=O)N(Cc3ccccc3)[C@@H](C(=O)NO)C(C)C)cc2c1
C = CC(C)[C@H](C(=O)NO)N(CCCc1ccccc1)S(=O)(=O)c1ccc2ccc(N)cc2c1
D = CC(C)CCOc1ccc2ccc(S(=O)(=O)N(CCC(C)C)[C@@H](C(=O)NO)C(C)C)cc2c1
Ask: # ascending order, key=pIC50 Please reply with the labels ordered as requested. Many thanks.
Result: D, B, C, A
(D: 5.49, B: 6.27, C: 6.72, A: 7.46)

====

- tested.target: Gelatinase (MMP-2) (Homo sapiens)
- Sequence (P08253 110-660, species assumed): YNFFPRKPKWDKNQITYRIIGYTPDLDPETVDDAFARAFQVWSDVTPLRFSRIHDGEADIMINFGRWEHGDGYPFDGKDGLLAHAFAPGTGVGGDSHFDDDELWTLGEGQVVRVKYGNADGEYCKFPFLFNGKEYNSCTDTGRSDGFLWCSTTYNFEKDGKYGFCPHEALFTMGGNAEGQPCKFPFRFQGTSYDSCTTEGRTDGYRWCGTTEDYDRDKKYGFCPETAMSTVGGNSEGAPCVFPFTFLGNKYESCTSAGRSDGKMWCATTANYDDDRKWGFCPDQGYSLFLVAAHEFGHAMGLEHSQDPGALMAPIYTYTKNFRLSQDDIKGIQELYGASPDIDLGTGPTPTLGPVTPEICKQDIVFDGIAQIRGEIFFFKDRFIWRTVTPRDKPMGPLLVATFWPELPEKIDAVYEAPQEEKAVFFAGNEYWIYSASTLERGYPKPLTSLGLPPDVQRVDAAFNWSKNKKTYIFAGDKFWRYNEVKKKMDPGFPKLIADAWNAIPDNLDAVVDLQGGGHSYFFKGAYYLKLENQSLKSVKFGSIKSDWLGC
- assay.summary: Gelatinase (MMP-2) inhibitory activity, fluorogenic peptide substrate assay
- Assay type: biochemical
- run.conditions: substrate 5 μM, 60 min preincubation, 20-25° C.; read-out: MMP2 IC50
observation.type: IC50 (nM)

The examples below pair each entry with its known result.
{"structure.notation": "CC(C)CCN([C@@H](C(=O)NO)C(C)C)S(=O)(=O)c1ccc2ccccc2c1Cl", "test.result": 779}
{"structure.notation": "CC(C)[C@H](C(=O)NO)N(CCOc1ccccc1Cl)S(=O)(=O)c1ccc2ccccc2c1", "test.result": 898}
{"structure.notation": "COc1c(S(=O)(=O)N2CC=CC[C@@H]2C(=O)NO)ccc2ccccc12", "test.result": 19.9}
{"structure.notation": "CC(C)[C@H](C(=O)NO)N(CCOc1ccccc1)S(=O)(=O)c1ccc2ccccc2c1", "test.result": 61.2}

a = CC(C)CCN(C1(C(=O)NO)CCCC1)S(=O)(=O)c1ccc2ccccc2c1
b = COc1c(S(=O)(=O)N(CCC(C)C)[C@@H](C(=O)NO)C(C)C)ccc2ccccc12
Ask: Between a and b , which one has the lower reported IC50 value? Respond using the label that marks the chosen record.
Result: b
(b: 51.8 nM, a: 940 nM)

====

- tested.target: Collagenase-3 (MMP-13) (Homo sapiens, UniProt P45452)
- assay.summary: Collagenase-3 (MMP-13) inhibitory activity, fluorogenic peptide substrate assay
- Assay type: biochemical
- run.conditions: read-out: IC50 (Collagenase-3 (MMP-13) inhibitory activity)
observation.type: IC50

Ask: // returns reported IC50 for input CC(C)CCN([C@@H](C(=O)NO)C(C)C)S(=O)(=O)c1ccc2ccccc2c1Cl [Example 80]
Result: ~113 nM

====

- tested.target: Collagenase-3 (MMP-13) (Homo sapiens, UniProt P45452)
- assay.summary: Collagenase-3 (MMP-13) inhibitory activity, fluorogenic peptide substrate assay
- Assay type: biochemical
- run.conditions: recombinant pro-collagenase-3 activated with 1 mM APMA; read-out: MMP13 IC50
pIC50: −log10 of the molar value.
observation.type: pIC50

{"structure.notation": "CC(C)CCN([C@@H](C(=O)NO)C(C)C)S(=O)(=O)c1nc2ccccc2s1", "test.result": 7.20}

A = C=CCN([C@@H](C(=O)NO)C(C)C)S(=O)(=O)c1ccc2ccccc2c1
B = CC1=CC[C@H](C(=O)NO)N(S(=O)(=O)c2ccc3ccccc3c2)C1
C = CC(C)(C)[C@@H](NS(=O)(=O)c1ccc2ccccc2c1)C(=O)NO
Ask: Arrange these compounds by their pIC50, starting with the largest number. # answer = labels listed in requested order
Result: B, A, C

====

- tested.target: Collagenase-3 (MMP-13) (Homo sapiens)
- assay.summary: Collagenase-3 (MMP-13) inhibitory activity, fluorogenic peptide substrate assay
- Type: biochemical
- run.conditions: recombinant pro-collagenase-3 activated with 1 mM APMA; read-out: MMP13 IC50
pIC50: −log10 of the molar value.
observation.type: pIC50

Look over these answered cases.
{"structure.notation": "CC(C)CCN([C@H](Cc1ccc(OCc2ccccc2)cc1)C(=O)NO)S(=O)(=O)c1ccc2ccccc2c1", "pIC50": 7.36}
{"structure.notation": "C=CC1=CCN(S(=O)(=O)c2ccc3ccccc3c2)[C@@H](C(=O)NO)C1", "pIC50": 8.74}
{"structure.notation": "O=C(NO)C1(NS(=O)(=O)c2ccc3ccccc3c2)CCCCC1", "pIC50": 6.14}

A = O=C(NO)[C@H]1CC=CCCN1S(=O)(=O)c1ccc2ccccc2c1
B = CC(C)C[C@@H](NS(=O)(=O)c1ccc2ccccc2c1)C(=O)NO
C = O=C(NO)[C@H]1CCCCN1S(=O)(=O)c1ccc2ccccc2c1
D = CC(C)CCN([C@@H](C(=O)NO)C(C)C)S(=O)(=O)c1ccc2ccccc2c1O
E = CC(C)CCN(C1(C(=O)NO)CCCC1)S(=O)(=O)c1ccc2ccccc2c1
Ask: Exam item: list the entries in increasing order of pIC50. Lab note: record answer as labels in requested order.
Result: D, E, B, A, C

I = CN1CCOc2cc(S(=O)(=O)N3CC=CC[C@@H]3C(=O)NO)ccc21
II = CC(=O)Nc1ccc2cc(S(=O)(=O)N(CCC(C)C)[C@@H](C(=O)NO)C(C)C)ccc2c1
III = Cc1ccc(C)c(OCCN([C@@H](C(=O)NO)C(C)C)S(=O)(=O)c2ccc3ccccc3c2)c1C
IV = CC(C)CCN(C(C)(C)C(=O)NO)S(=O)(=O)c1ccc2ccccc2c1
V = CC(=O)Nc1ccc2ccc(S(=O)(=O)N(CCC(C)C)[C@@H](C(=O)NO)C(C)C)cc2c1
Ask: // ranking: key=pIC50, reverse=True List each label, following the requested order.
Result: V, II, I, III, IV
(V: 9.30, II: 8.51, I: 7.43, III: 7.17, IV: 5.65)

a = O=C(NO)[C@H]1CC=CCN1S(=O)(=O)c1cnc2ccccc2c1
b = O=C(NO)[C@H]1CC=CCN1S(=O)(=O)c1ccc(N2CCOCC2)nc1
c = CC(C)[C@H](C(=O)NO)N(CCCc1ccccc1)S(=O)(=O)c1ccc2cc(N)ccc2c1
Ask: Hello, I need these entries ordered by pIC50, highest reading first. Thanks! Hello, could you send the labels back in the order asked? Thank you.
Result: c, a, b
(c: 9.00, a: 7.02, b: 6.49)

====

- tested.target: Gelatinase (MMP-2) (Homo sapiens)
- assay.summary: Gelatinase (MMP-2) inhibitory activity, fluorogenic peptide substrate assay
- Type: biochemical
- run.conditions: substrate 5 μM, 60 min preincubation, 20-25° C.; read-out: MMP2 IC50
pIC50: −log10 of the molar value.
observation.type: pIC50

{"compound": "CC(C)[C@H](C(=O)NO)N(CCOc1ccc(F)cc1)S(=O)(=O)c1ccc2ccccc2c1", "tested.target": "Gelatinase (MMP-2) (Homo sapiens)", "pIC50": 5.95}
{"compound": "CC(C)[C@H](C(=O)NO)N(CCOc1cccc(Cl)c1)S(=O)(=O)c1ccc2ccccc2c1", "tested.target": "Gelatinase (MMP-2) (Homo sapiens)", "pIC50": 5.41}
{"compound": "C=CC[C@@H](NS(=O)(=O)c1ccc2ccccc2c1)C(=O)NO", "tested.target": "Gelatinase (MMP-2) (Homo sapiens)", "pIC50": 7.65}
{"compound": "CC1=CC[C@H](C(=O)NO)N(S(=O)(=O)c2ccc3ccccc3c2)C1", "tested.target": "Gelatinase (MMP-2) (Homo sapiens)", "pIC50": 7.90}
{"compound": "O=C(NO)[C@H]1[C@@H]2CCCC[C@@H](C2)N1S(=O)(=O)c1ccc2ccccc2c1", "tested.target": "Gelatinase (MMP-2) (Homo sapiens)", "pIC50": 6.11}

P = CC(C)[C@H](C(=O)NO)N(CCCc1ccccc1)S(=O)(=O)c1ccc2cc(N)ccc2c1
Q = O=C(NO)[C@H]1C2CCC(CC2)N1S(=O)(=O)c1ccc2ccccc2c1
R = CC(=O)Nc1ccc2cc(S(=O)(=O)N(CCCc3ccccc3)[C@@H](C(=O)NO)C(C)C)ccc2c1
S = O=C(NO)[C@H]1CC=C(c2ccccc2)CN1S(=O)(=O)c1ccc2ccccc2c1
T = CC(C)(C)[C@@H](NS(=O)(=O)c1ccc2ccccc2c1)C(=O)NO
Ask: Ascending by pIC50, please: list the compounds accordingly. Response field: labels, in requested order.
Result: Q, R, T, P, S
(Q: 4.65, R: 5.54, T: 6.22, P: 7.09, S: 7.56)

P = O=C(NO)[C@H]1CCCCCN1S(=O)(=O)c1ccc2ccccc2c1
Q = CCOc1ccc2ccc(S(=O)(=O)N(Cc3cccnc3)[C@@H](C(=O)NO)C(C)C)cc2c1
Ask: Smaller pIC50 value, P vs Q ? Label of pick, please.
Result: Q
(Q: 6.01, P: 7.13)

P = O=C(NO)[C@H]1CC=CCN1S(=O)(=O)c1ccc2ccccc2c1
Q = CC(C)CCN([C@@H](C(=O)NO)C(C)C)S(=O)(=O)c1nc2ccccc2s1
R = O=C(NO)[C@H]1CCCCN1S(=O)(=O)c1ccc2ccccc2c1
S = C=CCOc1ccc2cc(S(=O)(=O)N(CCC(C)C)[C@@H](C(=O)NO)C(C)C)ccc2c1
Ask: Write the entries in order, lowest recorded pIC50 first. Give your ranking as a list of the labels in the requested order.
Result: Q, S, R, P

I = CC(C)(C)[C@@H](NS(=O)(=O)c1ccc2ncccc2c1)C(=O)NO
II = CC(C)CCN(C1(C(=O)NO)CC1)S(=O)(=O)c1ccc2ccccc2c1
III = Cc1ccc2ccc(S(=O)(=O)N(CCC(C)C)[C@@H](C(=O)NO)C(C)C)cc2c1
IV = O=C(NO)[C@H]1CC=CCN1S(=O)(=O)c1ccc2ncccc2c1
V = CC(=O)Nc1ccc2ccc(S(=O)(=O)N(CCC(C)C)[C@@H](C(=O)NO)C(C)C)cc2c1
Ask: Ordering criterion: pIC50; begin with the maximum. Ranked list of labels, please, in the requested order.
Result: V, IV, II, I, III

1 = CC(C)(NS(=O)(=O)c1ccc2ccccc2c1)C(=O)NO
2 = CC(C)[C@H](C(=O)NO)N(CCOc1ccc(Cl)cc1)S(=O)(=O)c1ccc2ccccc2c1
Ask: Of 1 and 2 , whose reported pIC50 is numerically smaller? # answer = label of selected item
Result: 2
(2: 5.58, 1: 6.10)

A = O=C(NO)[C@H]1CCCCN1S(=O)(=O)c1cnc2ccccc2c1
B = C=CC1=CCN(S(=O)(=O)c2ccc3ccccc3c2)[C@@H](C(=O)NO)C1
Ask: Please compare: A and B . Report which one has the smaller pIC50 value. The response must carry the label of the picked entry.
Result: A
(A: 6.01, B: 7.52)

I = COc1cccc(OCCN([C@@H](C(=O)NO)C(C)C)S(=O)(=O)c2ccc3ccccc3c2)c1
II = O=C(NO)[C@H]1CCCN1S(=O)(=O)c1ccc2ccccc2c1 (stereo in doubt)
Ask: Would you let me know which has the greater pIC50 value, I or II ? // respond with label for picked entry
Result: II

1 = CC(C)CCN([C@@H](C(=O)NO)C(C)C)S(=O)(=O)c1ccc2cc(N)ccc2c1
2 = O=C(NO)C(NS(=O)(=O)c1ccc2ccccc2c1)C1CCOCC1 (stereo not drawn)
3 = CSCC[C@H](C(=O)NO)N(CCC(C)C)S(=O)(=O)c1ccc2ccccc2c1
Ask: // smallest pIC50 at index 0, largest at the end Respond with the label ranking, as requested.
Result: 1, 2, 3
